experiment: qHTS for Inhibitors of human tyrosyl-DNA phosphodiesterase 1 (TDP1): qHTS in cells in presence of CPT; settings: chicken DT40 Tdp1-/-;hTDP1 cells + 20 nM CPT, ATP luminescence, 48 h; series mostly up to 46.2 µM; note: nearly all actives have a fitted effect of over 55% in size
Screen size: about 420,000 compounds; about 50,000 (12%) were called active. Another 26% or so got no clear call; they are omitted. Calls come from the whole dose curve; as a rule, active = well fitted inhibition curve with a large enough effect; inconclusive = small, poorly fitted or top-dose-only effect; inactive = flat fitted curve, though single readings scatter. Only a selection was taken, and actives are over-represented in it overall.
The reply should be one of these categories: active, inactive

Hi, sorry to bother you, what did the test record for O=C(O)C1CCC(CNS(=O)(=O)c2ccc(Br)cc2)CC1 (stereo not given) ?
inactive

Hi, sorry to bother you, what did the test record for "COc1cccc(OC)c1C(=O)Nc1ccc2c(c1)n(C)c(=O)n2C" ?
inactive

Hi, sorry to bother you, what did the test record for CC(=O)N1c2ccc(S(=O)(=O)N(C)CC(=O)N(C)Cc3ccccc3)cc2CC1C (stereo not given) ?
inactive

Hi, sorry to bother you, what did the test record for "C=CCNC(=S)NNc1ncnc2sc3c(c12)CC(C)(C)OC3" ?
active

Hi, sorry to bother you, what did the test record for "CCOC(=O)c1ccc(NC(=O)Cn2cnc3cc(C)c(C)cc32)cc1" ?
active

Hi, sorry to bother you, what did the test record for "CS(=O)(=O)N1CCN(CC(=O)NC2CCCC2)CC1" ?
inactive

Hi, sorry to bother you, what did the test record for COc1ccccc1NC(=O)C1=C(C)Nc2ncnn2C1c1sccc1C (stereo not given) ?
inactive

Hi, sorry to bother you, what did the test record for "CN(C)c1nc(NN)nc(Nc2ccc(F)cc2)n1" ?
inactive

Hi, sorry to bother you, what did the test record for "O=C1[C@@H](c2ccccc2)[C@@H](c2ccccc2)N1c1cccnc1" ?
active

Hi, sorry to bother you, what did the test record for COc1ccc(C(=O)COC(=O)CN2C(=O)C3CC=CCC3C2=O)c(OC)c1 (stereo not given) ?
inactive

Hi, sorry to bother you, what did the test record for "CCCCN(C(=O)c1ccc2ccccc2c1)c1c(N)n(CCCC)c(=O)[nH]c1=O" ?
inactive

Hi, sorry to bother you, what did the test record for CCOc1ccc(NC(=O)CC2C(=O)N(c3ccccc3)C(=O)N2CCOC)cc1 (stereo not given) ?
inactive

Hi, sorry to bother you, what did the test record for "COc1ccc(Nc2ncc(F)c(N3CCOCC3)n2)cc1" ?
active

Hi, sorry to bother you, what did the test record for "CCOC(=O)c1ccccc1NC(=O)c1c(N)n(C)c(=O)[nH]c1=O" ?
inactive

Hi, sorry to bother you, what did the test record for "Cc1ccccc1NC(=O)NNC(=O)OC(C)(C)C" ?
inactive

Hi, sorry to bother you, what did the test record for "NC(=O)CSc1nnc(NC(=O)c2ccc3ccccc3c2)s1" ?
inactive

Hi, sorry to bother you, what did the test record for "Cc1ccc(S(=O)(=O)NCCC(=O)NCc2ccc(Cl)cc2)cc1C" ?
inactive

Hi, sorry to bother you, what did the test record for Cc1ccccc1N1CC(C(=O)Nc2ccc(S(=O)(=O)N3CCCC3)cc2)CC1=O (stereo not given) ?
inactive

Hi, sorry to bother you, what did the test record for COc1ccccc1NC(=O)C1=C(C)Nc2nc3ccccc3n2C1c1cccs1 (stereo not given) ?
active

Hi, sorry to bother you, what did the test record for "O=C(c1ccc(Br)o1)N1CCN(CCOc2ccccc2)CC1" ?
inactive

Hi, sorry to bother you, what did the test record for "Cc1cccc2c(=O)cc(CSc3ccccc3NC(=O)C(C)C)[nH]c12" ?
inactive

Hi, sorry to bother you, what did the test record for CC1Cc2ccccc2N1CC(=O)Nc1ccc(S(N)(=O)=O)cc1 (stereo not given) ?
inactive

Hi, sorry to bother you, what did the test record for "CC[C@@]1(C(=O)OC)N[C@H](CN(C)C(C)=O)[C@@H]2C(=O)N(C)C(=O)[C@@H]21" ?
inactive

Hi, sorry to bother you, what did the test record for "COC(=O)c1sccc1NC(=O)c1ccc(Cl)cc1" ?
inactive

Hi, sorry to bother you, what did the test record for "CCOC(=O)CNc1nc(Cl)nc(Nc2ccc(OC)cc2OC)n1" ?
inactive

Hi, sorry to bother you, what did the test record for CCNC(=O)N1CCNC(=O)C1CC(=O)Nc1ccc(C(=O)OCC)cc1 (stereo not given) ?
inactive

Hi, sorry to bother you, what did the test record for "COC(=O)[C@H](C)NC(=O)Nc1ccc(OC(F)(F)F)cc1" ?
inactive

Hi, sorry to bother you, what did the test record for COc1ccc(CCN2C(=O)N(c3cccc(OC)c3)C(=O)C2CC(=O)Nc2ccccc2)cc1 (stereo not given) ?
active

Hi, sorry to bother you, what did the test record for CC1Cc2cc(S(=O)(=O)CCC(=O)NCc3ccc(Cl)cc3)ccc2N1C(=O)C1CC1 (stereo not given) ?
active

Hi, sorry to bother you, what did the test record for O=C1OCC2=C1C(c1ccc(Cl)cc1)c1cc3c(cc1O2)OCO3 (stereo not given) ?
active

Hi, sorry to bother you, what did the test record for "O=C(COC(=O)c1cccc(Cl)c1)NC1CCCCCCC1" ?
inactive

Hi, sorry to bother you, what did the test record for "CC1CCN(C(=O)COC(=O)CCC(=O)c2cccs2)CC1" ?
inactive

Hi, sorry to bother you, what did the test record for "CC(C)(C)OC(=O)NNc1c2ccccc2nc2ccccc12" ?
active

Hi, sorry to bother you, what did the test record for "CC1(C)Cc2c(sc3nc4n(c(=N)c23)CCCCC4)CO1" ?
inactive

Hi, sorry to bother you, what did the test record for "Cn1nccc1NC(=O)Nc1ccc(OC(F)(F)F)cc1" ?
inactive

Hi, sorry to bother you, what did the test record for "CCOC(=O)c1ccc(NC(=O)CSc2ncccn2)cc1" ?
inactive

Hi, sorry to bother you, what did the test record for "O=c1[nH]c2ccccc2n1C1CCN(CCOc2ccccc2)CC1" ?
active

Hi, sorry to bother you, what did the test record for CC1Cc2cc(S(=O)(=O)CCC(=O)Nc3ccc(F)c(Cl)c3)ccc2N1C(=O)C1CC1 (stereo not given) ?
active

Hi, sorry to bother you, what did the test record for "O=C(c1ccc(F)cc1)C1CCN(Cc2cn[nH]c2-c2ccccc2)CC1" ?
inactive

Hi, sorry to bother you, what did the test record for "Cc1ccc(NC(=O)CSc2nnc(COc3ccccc3C)o2)cc1" ?
inactive

Hi, sorry to bother you, what did the test record for "CCOC(=O)c1ccc(NC(=O)Cn2c(=O)cc(C)c3c(C)nn(-c4cccc(F)c4)c32)cc1" ?
inactive

Hi, sorry to bother you, what did the test record for "COc1ccccc1/C=C/C(=O)OCC(=O)NC1CCCCCC1" ?
inactive

Hi, sorry to bother you, what did the test record for "O=C(c1ccco1)N1CCN(CCOc2ccccc2)CC1" ?
inactive

Hi, sorry to bother you, what did the test record for "N#Cc1ccc(S(=O)(=O)NCC(=O)OCC(=O)NCCc2ccccc2)cc1" ?
inactive

Hi, sorry to bother you, what did the test record for O=C(NC1CCCCC1)C1CC(=O)N(CCc2ccccc2)C1 (stereo not given) ?
inactive

###

assay: qHTS for Inhibitors of human tyrosyl-DNA phosphodiesterase 1 (TDP1): qHTS in cells in presence of CPT; details: chicken DT40 Tdp1-/-;hTDP1 cells + 20 nM CPT, ATP luminescence, 48 h; series mostly up to 46.2 µM; note: nearly all actives have a fitted effect of over 55% in size; note: potency is the fitted concentration of half-maximal effect
The campaign covered roughly 420,000 compounds. About 50,000 (12%) were called active. Roughly 26% stayed inconclusive and do not appear here. Only a selection was taken, and actives are over-represented in it overall.
MEASURED_QUANTITY: Potency

CCn1c(SCC(=O)c2ccc(Cl)s2)nnc1-c1cccs1 ... inactive
CCOC(=O)Cn1c(-c2cccnc2Cl)nc2ccccc21 ... inactive
CCCCCn1c(=O)[nH]c2cc(C(=O)Nc3ccc(F)cc3)ccc2c1=O ... 20.6 µM (active)
COc1ccc(/C=C(\C#N)C(=O)OCC(=O)N(C)C2CCS(=O)(=O)C2)cc1 (stereo unspecified) ... inactive
O=c1cc(COc2cccc(C(F)(F)F)c2)nc2sc3c(n12)CCCC3 ... inactive
CCOC(=O)c1c(NC(=S)Nc2ccccc2)sc2c1CCN(C)C2 ... inactive

--- query ---
Sample "O=C1CCC(=O)N(c2ccccc2)N1" — what was its Potency?
inactive

###

assay: qHTS for Inhibitors of human tyrosyl-DNA phosphodiesterase 1 (TDP1): qHTS in cells in presence of CPT; settings: chicken DT40 Tdp1-/-;hTDP1 cells + 20 nM CPT, ATP luminescence, 48 h; series mostly up to 46.2 µM; note: nearly all actives have a fitted effect of over 55% in size
Hit rate of the full screen: of about 420,000 compounds, about 50,000 (12%) were called active. Another 26% or so got no clear call; they are omitted. The call rests on the fitted dose curve; in most records, active means well fitted inhibition curve with a large enough effect; inconclusive means small, poorly fitted or top-dose-only effect; inactive means flat fitted curve, though single readings scatter. For the sample, actives were picked, then their nearest neighbours and some compounds at random.
The reply should be one of these categories: 1 (yes) (active), 0 (no) (inactive)

Hi, sorry to bother you, what did the test record for "COc1ccccc1OCCNC(=O)c1cc([N+](=O)[O-])cc([N+](=O)[O-])c1" ?
0 (no)

Hi, sorry to bother you, what did the test record for "NC(=S)N/N=C/c1ccc([N+](=O)[O-])cc1" ?
0 (no)

Hi, sorry to bother you, what did the test record for "CCOC(=O)c1ccc(NC(=O)c2cc(=O)[nH]c3ccccc23)cc1" ?
0 (no)

Hi, sorry to bother you, what did the test record for "CC(=O)c1ccc(N2CCN(C(=O)CCc3ccccc3)CC2)cc1" ?
0 (no)

Hi, sorry to bother you, what did the test record for "O=C(N/N=C/c1ccc([N+](=O)[O-])cc1)C(=O)N1CCCC1" ?
0 (no)

Hi, sorry to bother you, what did the test record for "COc1cc(/C=N/NC(=O)CNC(=O)c2ccncc2)ccc1OC(C)=O" ?
0 (no)

Hi, sorry to bother you, what did the test record for C=C1C(=O)C23C(O)C1CCC2[C@]12COC3(O)C(O)C1C(C)(C)CC[C@H]2O (stereo partly specified) ?
1 (yes)

Hi, sorry to bother you, what did the test record for "NNc1nnc(NN)c2ccccc12" ?
0 (no)

Hi, sorry to bother you, what did the test record for "COc1ccc(OCc2cccc(C(=O)N3CCCC3)c2)cc1" ?
0 (no)

Hi, sorry to bother you, what did the test record for CCOc1ccc(C2c3[nH]c4ccccc4c3CCN2Cc2cccn2-c2ncccn2)cc1 (stereo unspecified) ?
1 (yes)

Hi, sorry to bother you, what did the test record for "Cc1cc(C)nc(N/N=C/c2ccncc2)n1" ?
0 (no)

Hi, sorry to bother you, what did the test record for "COc1ccc(C(=O)NCC(=O)N/N=C/c2ccc([N+](=O)[O-])o2)cc1OC" ?
1 (yes)

Hi, sorry to bother you, what did the test record for "CCCCc1nc2c(=O)[nH]c3ccccc3c2o1" ?
0 (no)

Hi, sorry to bother you, what did the test record for "CC(=O)c1ccc(S(=O)(=O)N(C)CCCC(=O)N(C)Cc2ccccc2F)cc1" ?
0 (no)

Hi, sorry to bother you, what did the test record for "COc1cc(CCC(=O)Nc2ccncc2Cl)cc(OC)c1OC" ?
0 (no)

Hi, sorry to bother you, what did the test record for Nc1ccc2c(c1)C(O)c1ccc(Cl)cc1-2 (stereo unspecified) ?
0 (no)

Hi, sorry to bother you, what did the test record for CCOc1ccc(C2c3[nH]c4ccccc4c3CCN2Cc2cn(CC)nc2C)cc1 (stereo unspecified) ?
0 (no)

Hi, sorry to bother you, what did the test record for COc1ccc(-c2nnc(SC(C)C(=O)NC3CC3)o2)cc1 (stereo unspecified) ?
0 (no)

Hi, sorry to bother you, what did the test record for "COc1ccc(S(=O)(=O)N2C[C@H]3CON(C)[C@H]3C[C@H]2c2cccc(Br)c2)cc1" ?
0 (no)

Hi, sorry to bother you, what did the test record for CC(C(=O)N1CCN(c2ccccc2F)CC1)c1ccc([N+](=O)[O-])cc1 (stereo unspecified) ?
0 (no)

Hi, sorry to bother you, what did the test record for "COc1ccc([N+](=O)[O-])cc1N(CC(=O)Nc1ccccc1C(=O)N1CCOCC1)S(C)(=O)=O" ?
0 (no)

Hi, sorry to bother you, what did the test record for "C#CCOCCOCCOCCNc1nc(N2CCOCC2)nc(N2CCN(C(=O)[C@H](Cc3ccc(O)cc3)n3cc(CCO)nn3)CC2)n1" ?
0 (no)

Hi, sorry to bother you, what did the test record for "COc1ccc(CCNC(=O)CSc2nc3[nH]ncc3c(=O)n2-c2cccc(C(F)(F)F)c2)cc1OC" ?
0 (no)

Hi, sorry to bother you, what did the test record for "CCOc1ccc(OCc2cccc(C(=O)N(CC)CC)c2)cc1" ?
1 (yes)

Hi, sorry to bother you, what did the test record for "Cn1nnnc1SCc1cc(=O)[nH]c2ccccc12" ?
0 (no)

Hi, sorry to bother you, what did the test record for "COc1ccccc1NC(=O)[C@H](COCc1ccccc1)NC(=O)OC(C)(C)C" ?
1 (yes)

Hi, sorry to bother you, what did the test record for "C[C@H]1CN([C@@H](C)CO)S(=O)(=O)c2ccc(Br)cc2O[C@H]1CN(C)C(=O)c1cnccn1" ?
0 (no)

Hi, sorry to bother you, what did the test record for O=S1(=O)CC(N2CCN(CCO)CC2)CN1Cc1cn(Cc2ccc(Cl)cc2)nn1 (stereo unspecified) ?
0 (no)

Hi, sorry to bother you, what did the test record for "CCc1ccc(NC(=O)CSc2nc3c([nH]c4ccccc43)c(=O)n2-c2cccc(OC)c2)cc1" ?
0 (no)

Hi, sorry to bother you, what did the test record for CC(C)C1C(=O)N(Cc2cn(CCC3OCCO3)nn2)CCS(=O)(=O)N1Cc1ccc(-c2ccccc2C(F)(F)F)cc1 (stereo unspecified) ?
1 (yes)

Hi, sorry to bother you, what did the test record for "CCOc1ccc(NC(=O)CCC(=O)N/N=C/c2ccc([N+](=O)[O-])s2)cc1" ?
1 (yes)

Hi, sorry to bother you, what did the test record for "N=C1C(c2nc3ccccc3s2)=C(O)CN1NC(=O)c1ccc([N+](=O)[O-])cc1" ?
1 (yes)

Hi, sorry to bother you, what did the test record for "CN(Cc1ccccc1)C(=O)c1cccc(C(=O)N(C)Cc2ccccc2)c1" ?
0 (no)

Hi, sorry to bother you, what did the test record for "COc1ccc(NC(=O)Cn2c(-c3ccc(OC)cc3)cn(-c3ccc(C)cc3)c2=O)cc1" ?
0 (no)

Hi, sorry to bother you, what did the test record for "COc1ccc(-c2nnc(SC(=O)N3c4ccccc4Sc4ccccc43)o2)cc1" ?
1 (yes)

Hi, sorry to bother you, what did the test record for "COc1ccc(OC)c(Cc2cnc3nc(N)nc(N)c3c2C)c1" ?
1 (yes)

Hi, sorry to bother you, what did the test record for "Cc1cc(C)nc(Nc2cc([N+](=O)[O-])ccc2C)n1" ?
0 (no)

Hi, sorry to bother you, what did the test record for "Cc1cccc(-n2c(Cc3cc(=O)[nH]c(=O)[nH]3)nnc2SCC(=O)Nc2cccc(C(F)(F)F)c2)c1" ?
0 (no)

Hi, sorry to bother you, what did the test record for "CCOC(=O)CCCN1CC(O)=C(c2nc3ccccc3s2)C1=N" ?
0 (no)

Hi, sorry to bother you, what did the test record for "NC(=O)NC(=O)CSc1nc2cc([N+](=O)[O-])ccc2n1-c1cccc(C(F)(F)F)c1" ?
1 (yes)

Hi, sorry to bother you, what did the test record for "Cc1cc(C)nc(N/N=C/c2ccc([N+](=O)[O-])o2)n1" ?
1 (yes)

Hey, just so you know, these numbers are from PubChem BioAssay AID686979.
